The reported measurements were obtained from patent US20220055989A1.

Molecular target: CREBBP (Homo sapiens, UniProt Q92793)
Construct: T7 phage strains displaying bromodomains were grown
Sequence (Q92793 1085-1192 limits assumed): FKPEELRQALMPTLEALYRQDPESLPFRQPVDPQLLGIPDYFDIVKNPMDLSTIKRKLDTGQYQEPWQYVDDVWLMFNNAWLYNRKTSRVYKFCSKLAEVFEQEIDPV
Assay: BROMOscan Kd determination CREBBP
pKd: −log10 of the molar value.

# compound.structure.string, pKd
data = [
    ("Cc1[nH]c(-c2cc(N)ccc2Cl)c2c1C(=O)CCCC2", 6.38),
]

* * *

Molecular target: BRD2(1, 2) (Homo sapiens)
Construct: T7 phage strains displaying bromodomains were grown in parallel
Sequence (P25440 71-455 limits assumed): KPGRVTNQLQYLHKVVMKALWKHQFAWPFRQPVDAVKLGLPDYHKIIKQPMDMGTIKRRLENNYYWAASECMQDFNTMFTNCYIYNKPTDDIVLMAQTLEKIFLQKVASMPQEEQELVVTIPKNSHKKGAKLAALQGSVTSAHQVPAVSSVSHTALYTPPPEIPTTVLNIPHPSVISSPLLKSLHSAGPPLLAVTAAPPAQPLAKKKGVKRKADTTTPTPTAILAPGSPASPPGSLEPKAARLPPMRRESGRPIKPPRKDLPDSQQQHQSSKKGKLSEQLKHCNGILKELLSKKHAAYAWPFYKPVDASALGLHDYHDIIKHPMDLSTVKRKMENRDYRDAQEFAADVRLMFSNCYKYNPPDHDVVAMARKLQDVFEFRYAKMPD
Test: BROMOscan Kd determination BRD2(1, 2)
measurement.type: Kd (µM)

# compound.structure.string, assay.value
records = [
    ("Cc1[nH]c(-c2cc(N)ccc2Cl)c2c1C(=O)CCCC2", 0.084),
]

* * *

Molecular target: TRIM24(PHD, Bromo) (Homo sapiens)
Construct: T7 phage strains displaying bromodomains were grown in parallel
Sequence (O15164 824-1006 limits assumed): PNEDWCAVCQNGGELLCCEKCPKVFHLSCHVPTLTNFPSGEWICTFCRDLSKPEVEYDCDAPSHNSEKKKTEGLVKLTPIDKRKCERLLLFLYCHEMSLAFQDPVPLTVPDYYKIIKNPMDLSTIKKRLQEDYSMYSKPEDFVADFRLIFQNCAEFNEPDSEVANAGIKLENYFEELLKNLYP
Assay: BROMOscan Kd determination TRIM24(PHD, Bromo.)
pKd: −log10 of the molar value.

# compound.structure.string, pKd
data = [
    ("Cc1[nH]c(-c2cc(N)ccc2Cl)c2c1C(=O)CCCC2", 5.28),
]

* * *

Target: BRD7 (Homo sapiens)
Construct: T7 phage strains displaying bromodomains were grown; host or cells: T7 phage in E. coli derived from BL21
Sequence (Q9NPI1 131-235 limits assumed): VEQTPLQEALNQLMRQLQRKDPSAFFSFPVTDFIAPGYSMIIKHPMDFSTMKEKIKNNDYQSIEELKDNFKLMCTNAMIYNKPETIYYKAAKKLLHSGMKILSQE
Assay: BROMOscan Kd determination BRD7
Assay type: binding
Collected log10 Kd values appear next to each entry.
measurement.type: log10 Kd (log10 of the value in µM)

# compound, measurement.type, assay.value
measured = [
    ("COc1ccc(S(=O)(=O)N2CC3(COC3)C2)cc1NC(=O)c1[nH]c(C)c2c1CCCCC2=O [Compound 16]", "log10 Kd", -2.26),
    ("COc1ccc(S(=O)(=O)N2CCCCCC2)cc1NC(=O)c1[nH]c(C)c2c1CCCCC2=O [Compound 12]", "log10 Kd", -0.51),
    ("COc1ccc(S(=O)(=O)N2CCN(C)CC2)cc1NC(=O)c1[nH]c(C)c2c1CCCCC2=O [Compound 14]", "log10 Kd", -0.80),
    ("CCN(CC)S(=O)(=O)c1ccc(OC)c(NC(=O)c2[nH]c(C)c3c2CCCCC3=O)c1 [Compound 11]", "log10 Kd", -0.60),
    ("COc1ccc(S(=O)(=O)N2CCOCC2)cc1NC(=O)c1[nH]c(C)c2c1CCCCC2=O [Compound 13]", "log10 Kd", -1.07),
    ("COc1ccc(S(=O)(=O)N2CCCCC2)cc1NC(=O)c1[nH]c(C)c2c1CCCCC2=O [Compound 15]", "log10 Kd", -0.36),
    ("Cc1[nH]c(-c2cc(N)ccc2Cl)c2c1C(=O)CCCC2 [Compound 23]", "log10 Kd", -0.37),
    ("CCCc1[nH]c(-c2cc(N)ccc2Cl)c2c1C(=O)CCCC2 [Compound 26]", "log10 Kd", 0.04),
]

* * *

Molecular target: BRDT(2) (Homo sapiens)
Construct: T7 phage strains displaying bromodomains were grown; host or cells: T7 phage in E. coli derived from BL21
Test: BROMOscan Kd determination BRDT(2)
Assay type: binding
Method: Bromodomain profiling was carried out on the basis of BROMOscan™. […] Kds were determined using an 11-point 3-fold compound dilution series with one DMSO control point. […] The bromodomain concentration in the eluates was measured by qPCR. […] Most Kds were determined using a compound top concentration=10,000 nM. […] Binding Constants (Kds): Binding constants (Kds) were calculated with a standard dose-response curve using the Hill equation: The Hill Slope was set to −1. […]
Collected Kd values appear next to each entry.
measurement.type: Kd (nM)

# compound.structure.string, measurement.type, units.text, assay.value
measured = [
    ("Cc1[nH]c(-c2cc(N)ccc2Cl)c2c1C(=O)CCCC2", "Kd", "nM", 620),
    ("COc1ccc(S(=O)(=O)N2CCOCC2)cc1NC(=O)c1[nH]c(C)c2c1CCCCC2=O", "Kd", "nM", 1000),
]
